All figures here come from the supplement of paper PMC7125110.

B1: glmS ribozyme (parent)
chain: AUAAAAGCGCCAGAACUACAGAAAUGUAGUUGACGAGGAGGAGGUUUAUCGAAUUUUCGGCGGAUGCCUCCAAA

Variants of: B1
Assay: self-cleavage kobs at 640 uM GlcN6P; higher = faster cleavage; RNA array
Conditions: with glucosamine-6-phosphate
Fewer inactive variants are shown than the library holds.
Provide the recorded self-cleavage kobs at 640 uM GlcN6P for the entries that follow.
Write the answer as a number in s⁻¹, unit excluded.

Quick check: self-cleavage kobs at 640 uM GlcN6P of `G32C` ?
2.26e-05

Entry A33C A39G please
0.000138

Entry A15C U30G U31G please
0.0146

Entry A12U C58A please
5.11e-05

Entry A15C C67G please
3.9e-05
